Answer each item with its documented RLU.
Measured Target: T1, human CD71 extracellular domain (human, UniProt P02786 89-760, biotinylated)
T1 construct: also called hCD71; CD71-ECD
T1 sequence (P02786 89-760): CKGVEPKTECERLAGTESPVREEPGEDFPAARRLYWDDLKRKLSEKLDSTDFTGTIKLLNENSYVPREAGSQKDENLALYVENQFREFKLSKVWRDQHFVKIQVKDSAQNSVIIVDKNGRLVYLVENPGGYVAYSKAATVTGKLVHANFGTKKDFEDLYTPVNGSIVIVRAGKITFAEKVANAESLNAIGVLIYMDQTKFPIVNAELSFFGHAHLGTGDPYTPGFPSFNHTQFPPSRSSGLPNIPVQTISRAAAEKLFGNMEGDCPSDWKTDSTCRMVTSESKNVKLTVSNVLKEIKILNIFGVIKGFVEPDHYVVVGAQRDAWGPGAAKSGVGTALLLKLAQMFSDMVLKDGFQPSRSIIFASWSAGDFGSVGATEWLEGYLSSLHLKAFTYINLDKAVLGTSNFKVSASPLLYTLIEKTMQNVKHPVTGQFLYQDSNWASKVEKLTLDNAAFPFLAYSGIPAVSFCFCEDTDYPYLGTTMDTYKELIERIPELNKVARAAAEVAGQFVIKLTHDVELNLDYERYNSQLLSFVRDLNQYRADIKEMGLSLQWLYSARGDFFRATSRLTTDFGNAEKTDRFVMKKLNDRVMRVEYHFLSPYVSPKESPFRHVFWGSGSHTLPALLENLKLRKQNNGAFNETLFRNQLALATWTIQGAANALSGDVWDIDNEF
Method Description: primary ELISA; note: test concentration or dose not given here
Give bare numbers, in RLU.

The following binders have reported results that may help.
CD71-binding FN3 domain of SEQ ID NO: 459 (designed binder) MLPAPKNLVVSRVTEDSARLSWTAPDAAFDSFFIRYLEPQPPGEAIHLSVPGSERSYDLTGLKPGTEYNVTIQGVKGGFPSMPLYAIFTT    2.5e+06
CD71-binding FN3 domain of SEQ ID NO: 478 (designed binder) MLPAPKNLVVSRVTEDSARLSWTAPDAAFDSFFIGYLEPQPPGEAIHLYVPGSERSYDLTGLKPGTEYNVTIQGVKGGFPSVPLIAKFTT    5.39e+06
CD71-binding FN3 domain of SEQ ID NO: 465 (designed binder) MLPAPKNLVVSRVTEDSARLSWTAPDAAFDSFFIGYLEPQPPGEAIDLYVPGSERSYDLTGLKPGTEYNVTIQGVKGGFPSEPLWADFTT    3.86e+06

Entry CD71-binding FN3 domain of SEQ ID NO: 482 (designed binder) MLPAPKNLIVSRVTEDSARLSWTAPDAAFDSFFIGYLEPQPPGEAIHLQVPGSERSYDLTGLKPGTEYNVTIQGVKGGFPSNPLHAEFTT has what RLU?
2.23e+06
